Record set of IC50 for target or system UniProt P22607.
Sequence (P22607 23-806): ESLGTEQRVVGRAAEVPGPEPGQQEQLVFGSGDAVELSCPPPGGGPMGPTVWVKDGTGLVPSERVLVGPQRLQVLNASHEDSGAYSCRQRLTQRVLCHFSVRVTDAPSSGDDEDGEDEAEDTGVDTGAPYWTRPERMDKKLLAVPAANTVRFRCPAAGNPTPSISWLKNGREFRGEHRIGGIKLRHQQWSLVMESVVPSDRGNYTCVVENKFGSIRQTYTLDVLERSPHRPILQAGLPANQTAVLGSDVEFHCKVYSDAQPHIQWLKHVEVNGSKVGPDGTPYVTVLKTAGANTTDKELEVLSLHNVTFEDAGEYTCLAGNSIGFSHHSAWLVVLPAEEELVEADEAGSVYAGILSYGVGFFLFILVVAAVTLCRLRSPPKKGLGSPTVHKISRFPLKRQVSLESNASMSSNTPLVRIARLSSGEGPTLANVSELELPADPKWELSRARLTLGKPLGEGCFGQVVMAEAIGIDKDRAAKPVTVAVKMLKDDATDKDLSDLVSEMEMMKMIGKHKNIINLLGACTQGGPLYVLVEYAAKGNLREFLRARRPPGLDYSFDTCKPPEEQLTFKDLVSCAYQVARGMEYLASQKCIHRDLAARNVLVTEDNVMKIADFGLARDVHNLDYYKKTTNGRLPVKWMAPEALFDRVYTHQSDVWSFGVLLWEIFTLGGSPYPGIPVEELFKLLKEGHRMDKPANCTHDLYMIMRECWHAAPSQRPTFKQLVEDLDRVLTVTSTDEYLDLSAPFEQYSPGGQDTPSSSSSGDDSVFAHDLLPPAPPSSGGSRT

Look over these answered cases.
>  <Compound>
CNC(=O)c1cc(-c2cnc3cc(-c4ccc(N5CCCC5=O)nc4)c(O[C@H]4CCOC4)nn23)c(F)c(C(F)F)c1 [Example 33]

>  <Obs Value>
< 10 nM

$$$$
>  <Compound>
COc1nn2c(-c3ccc4ncccc4c3)cnc2cc1-c1cnn(C)c1 [Example 5]

>  <Obs Value>
100 to 400 nM

$$$$

# context switch: different compound, same IC50
Query string: Query IC50 on UniProt P22607 for CNC(=O)c1cc(-c2cnc3cc(-c4ccc(C(=O)NC)c(F)c4)c(O[C@H]4CCOC4)nn23)c(F)c(C(F)F)c1 [Example 36]
Result string: 10 to 100 nM
